- targetUnderTest: Glucose-dependent insulinotropic receptor (Homo sapiens)
- Sequence (Q8TDV5 whole entry): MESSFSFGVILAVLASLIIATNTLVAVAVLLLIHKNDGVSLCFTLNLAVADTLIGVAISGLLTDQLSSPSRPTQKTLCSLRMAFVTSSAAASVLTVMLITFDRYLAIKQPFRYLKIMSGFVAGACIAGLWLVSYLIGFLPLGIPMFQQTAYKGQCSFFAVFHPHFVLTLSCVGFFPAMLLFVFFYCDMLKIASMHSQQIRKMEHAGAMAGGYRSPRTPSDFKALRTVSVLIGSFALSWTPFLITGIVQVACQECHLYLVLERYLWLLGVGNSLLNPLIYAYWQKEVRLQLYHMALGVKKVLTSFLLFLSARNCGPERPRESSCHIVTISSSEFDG
- assayOverview: Agonist activity at human GPR119 expressed in CHO cells co-expressing cyclic AMP response element-luciferase reporter gene incubated for 2 hrs by steady-glo luciferase assay
As shown below, each of these molecules has a reported EC50 value.
recordedMetric: EC50 (nM)

> print(dat)
                             smilesnotation  recordedmetric  unitofmeasure  valuemodifier  valueobserved
1  CCCN(c1cc(N2CCc3cc(S(C)(=O)=O)ccc32)ncn1)C1CCN(C(=O)OC(C)(C)C)CC1            EC50             nM              =             18
2  CC(C)(C)OC(=O)N1CCC(N(c2cc(N3CCc4cc(S(C)(=O)=O)ccc43)ncn2)C(F)(F)F)CC1            EC50             nM              =            2.5
3  CC(C)(C)OC(=O)N1CCC(N(c2cc(NC3CCN(S(C)(=O)=O)CC3)ncn2)C(F)(F)F)CC1            EC50             nM              =             43
4  CC(C)c1noc(N2CCC(N(c3cc(OC4CCN(S(C)(=O)=O)CC4)ncn3)C(F)(F)F)CC2)n1            EC50             nM              =            2.7
5  CC(C)(C)OC(=O)N1CCC(N(CC2CC2)c2cc(N3CCc4cc(S(C)(=O)=O)ccc43)ncn2)CC1            EC50             nM              =             51
6  CS(=O)(=O)N1CCC(Oc2cc(N(C3CCN(c4nc(C5CC5)no4)CC3)C(F)(F)F)ncn2)CC1            EC50             nM              =            5.4
7  CC(C)c1noc(N2CCC(N(c3cc(N4CCc5cc(S(C)(=O)=O)ccc54)ncn3)C(F)(F)F)CC2)n1            EC50             nM              =            2.9
8  CC(C)(F)c1noc(N2CCC(N(c3cc(OC4CCN(S(C)(=O)=O)CC4)ncn3)C(F)(F)F)CC2)n1            EC50             nM              =            4.6
9  CN(c1cc(N(C2CCN(C(=O)OC(C)(C)C)CC2)C(F)(F)F)ncn1)C1CCN(S(C)(=O)=O)CC1            EC50             nM              >          10000

###

- assayOverview: Aqueous solubility of the compound at pH 6.8 by HPLC analysis
- Assay type: physicochemical
- runParameters: buffer
As shown below, each of these compounds has a reported solubility value.
recordedMetric: solubility

> print(dat)
                             smilesnotation  recordedmetric  valueobserved
1  CC(C)c1noc(N2CCC(N(c3cc(OC4CCN(S(C)(=O)=O)CC4)ncn3)C(F)(F)F)CC2)n1      solubility       29 µg/mL
2  CC(C)(F)c1noc(N2CCC(N(c3cc(OC4CCN(S(C)(=O)=O)CC4)ncn3)C(F)(F)F)CC2)n1      solubility       21 µg/mL
3  CC(C)c1noc(N2CCC(N(c3cc(N4CCc5cc(S(C)(=O)=O)ccc54)ncn3)C(F)(F)F)CC2)n1      solubility   < 0.22 µg/mL
4  CS(=O)(=O)N1CCC(Oc2cc(N(C3CCN(c4nc(C5CC5)no4)CC3)C(F)(F)F)ncn2)CC1      solubility       15 µg/mL

###

- assayOverview: Oral bioavailability in […] at 1 mg/kg administered as cassette dose by LC/MS/MS analysis
- Format: ADME, organism-based, Rattus norvegicus
- runParameters: in vivo
recordedMetric: bioavailability (%)

> print(dat)
                             smilesnotation  valueobserved
1  CC(C)(F)c1noc(N2CCC(N(c3cc(OC4CCN(S(C)(=O)=O)CC4)ncn3)C(F)(F)F)CC2)n1             57

###

- assayOverview: Clearance in rat at 0.1 mg/kg, iv administered as cassette dose by LC/MS/MS analysis
- Type: ADME, organism-based
- runParameters: in vivo
recordedMetric: clearance (mL/min/kg)

> print(dat)
                             smilesnotation  unitofmeasure  valueobserved
1  CC(C)(F)c1noc(N2CCC(N(c3cc(OC4CCN(S(C)(=O)=O)CC4)ncn3)C(F)(F)F)CC2)n1      mL/min/kg           6.22

###

- targetUnderTest: Glucose-dependent insulinotropic receptor (Rattus norvegicus)
- Sequence (Q7TQN8 whole entry): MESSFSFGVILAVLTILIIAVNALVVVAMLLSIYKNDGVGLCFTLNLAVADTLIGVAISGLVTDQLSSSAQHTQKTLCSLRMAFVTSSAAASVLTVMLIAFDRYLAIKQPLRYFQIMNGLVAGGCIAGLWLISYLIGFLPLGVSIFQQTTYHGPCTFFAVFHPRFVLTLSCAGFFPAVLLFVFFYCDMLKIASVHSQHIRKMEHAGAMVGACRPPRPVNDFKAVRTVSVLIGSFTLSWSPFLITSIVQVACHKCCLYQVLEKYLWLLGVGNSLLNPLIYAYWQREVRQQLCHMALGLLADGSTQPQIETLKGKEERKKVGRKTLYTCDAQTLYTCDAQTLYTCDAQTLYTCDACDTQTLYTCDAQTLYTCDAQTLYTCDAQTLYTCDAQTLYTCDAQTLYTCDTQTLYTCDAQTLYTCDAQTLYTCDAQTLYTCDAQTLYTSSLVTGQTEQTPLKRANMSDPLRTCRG
- assayOverview: Agonist activity at rat GPR119 in golden hamster HIT-T15 cells assessed as induction of glucose-induced insulin secretion after 2 hrs by A1phaLISA
- Type: functional, cell-based
recordedMetric: EC50 (nM)

> print(dat)
                             smilesnotation                           targetundertest  valueobserved
1  CC(C)(F)c1noc(N2CCC(N(c3cc(OC4CCN(S(C)(=O)=O)CC4)ncn3)C(F)(F)F)CC2)n1  Glucose-dependent insulinotropic receptor (Rattus norvegicus)            4.8

###

As shown below, each of these molecules has a reported logD value.
- assayOverview: Partition coefficient, logD between 1-octanol and pH 7.4 aqueous buffer by chromatographic analysis
- Assay type: physicochemical
- runParameters: 1-octanol/pH 7.4 aqueous buffer
recordedMetric: logD

> print(dat)
                             smilesnotation  valueobserved
1  CC(C)(C)OC(=O)N1CCC(N(c2cc(N3CCc4cc(S(C)(=O)=O)ccc43)ncn2)C(F)(F)F)CC1            4.1
2  CCN(c1cc(N2CCc3cc(S(C)(=O)=O)ccc32)ncn1)C1CCN(C(=O)OC(C)(C)C)CC1            3.5
3  COCCN(c1cc(N2CCc3cc(S(C)(=O)=O)ccc32)ncn1)C1CCN(C(=O)OC(C)(C)C)CC1            3.4
4  CC(C)(C)OC(=O)N1CCC(N(CC2CC2)c2cc(N3CCc4cc(S(C)(=O)=O)ccc43)ncn2)CC1            4.1

###

- targetUnderTest: hERG (KCNH2) (Homo sapiens)
- Sequence (Q12809 whole entry): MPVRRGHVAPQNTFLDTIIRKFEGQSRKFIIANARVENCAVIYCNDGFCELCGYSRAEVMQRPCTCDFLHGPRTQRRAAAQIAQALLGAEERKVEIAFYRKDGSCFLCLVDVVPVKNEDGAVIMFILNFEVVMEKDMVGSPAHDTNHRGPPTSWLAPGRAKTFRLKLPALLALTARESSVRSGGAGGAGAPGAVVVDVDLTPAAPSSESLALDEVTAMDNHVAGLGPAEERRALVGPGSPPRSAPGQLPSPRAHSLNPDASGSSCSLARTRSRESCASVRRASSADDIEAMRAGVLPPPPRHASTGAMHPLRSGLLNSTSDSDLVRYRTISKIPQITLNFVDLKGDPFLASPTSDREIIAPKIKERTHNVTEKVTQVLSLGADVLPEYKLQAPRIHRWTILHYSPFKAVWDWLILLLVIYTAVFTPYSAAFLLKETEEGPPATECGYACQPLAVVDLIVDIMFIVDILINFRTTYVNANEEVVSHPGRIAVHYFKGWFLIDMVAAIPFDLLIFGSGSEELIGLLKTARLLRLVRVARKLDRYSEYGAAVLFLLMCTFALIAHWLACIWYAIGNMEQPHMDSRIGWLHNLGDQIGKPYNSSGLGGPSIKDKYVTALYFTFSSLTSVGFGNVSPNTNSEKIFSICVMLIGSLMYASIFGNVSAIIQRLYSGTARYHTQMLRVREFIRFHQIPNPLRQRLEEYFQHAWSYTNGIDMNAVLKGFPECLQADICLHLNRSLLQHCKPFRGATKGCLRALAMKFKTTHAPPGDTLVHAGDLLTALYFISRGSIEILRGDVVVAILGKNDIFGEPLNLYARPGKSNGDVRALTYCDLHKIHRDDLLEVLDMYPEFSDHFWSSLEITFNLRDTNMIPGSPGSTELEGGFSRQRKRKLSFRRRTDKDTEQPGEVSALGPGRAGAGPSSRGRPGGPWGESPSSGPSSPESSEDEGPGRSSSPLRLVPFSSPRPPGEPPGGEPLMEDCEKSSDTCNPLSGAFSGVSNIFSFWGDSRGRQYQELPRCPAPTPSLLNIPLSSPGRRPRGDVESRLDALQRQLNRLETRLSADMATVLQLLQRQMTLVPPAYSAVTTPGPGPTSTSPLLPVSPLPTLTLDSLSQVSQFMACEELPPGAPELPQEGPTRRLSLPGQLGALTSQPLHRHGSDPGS
- assayOverview: Inhibition of human ERG expressed in CHO cells at 10 uM at holding potential of -80 mV by patch clamp method
- Type: cell-based
- runParameters: CHO cells expressing human ERG
As shown below, each of these compounds has a reported inhibition at 10 µM value.
recordedMetric: inhibition at 10 µM (%)

> print(dat)
                             smilesnotation       recordedmetric  valueobserved
1  COCCN(c1cc(N2CCc3cc(S(C)(=O)=O)ccc32)ncn1)C1CCN(C(=O)OC(C)(C)C)CC1  inhibition at 10 µM            120
2  CCCN(c1cc(N2CCc3cc(S(C)(=O)=O)ccc32)ncn1)C1CCN(C(=O)OC(C)(C)C)CC1  inhibition at 10 µM             94
3  CC(C)(F)c1noc(N2CCC(N(c3cc(OC4CCN(S(C)(=O)=O)CC4)ncn3)C(F)(F)F)CC2)n1  inhibition at 10 µM             19
4  CC(C)(C)OC(=O)N1CCC(Nc2cc(N3CCc4cc(S(C)(=O)=O)ccc43)ncn2)CC1  inhibition at 10 µM             80
5  CCN(c1cc(N2CCc3cc(S(C)(=O)=O)ccc32)ncn1)C1CCN(C(=O)OC(C)(C)C)CC1  inhibition at 10 µM            116
6  CC(C)(C)OC(=O)N1CCC(N(CC2CC2)c2cc(N3CCc4cc(S(C)(=O)=O)ccc43)ncn2)CC1  inhibition at 10 µM            100
7  CN(c1cc(N2CCc3cc(S(C)(=O)=O)ccc32)ncn1)C1CCN(C(=O)OC(C)(C)C)CC1  inhibition at 10 µM             85
8  CC(C)(C)OC(=O)N1CCC(N(c2cc(N3CCc4cc(S(C)(=O)=O)ccc43)ncn2)C(F)(F)F)CC1  inhibition at 10 µM             13
